- measuredOn: T1, human G-CSF receptor (human, UniProt Q99062 25-836)
- T1 sequence (looked up): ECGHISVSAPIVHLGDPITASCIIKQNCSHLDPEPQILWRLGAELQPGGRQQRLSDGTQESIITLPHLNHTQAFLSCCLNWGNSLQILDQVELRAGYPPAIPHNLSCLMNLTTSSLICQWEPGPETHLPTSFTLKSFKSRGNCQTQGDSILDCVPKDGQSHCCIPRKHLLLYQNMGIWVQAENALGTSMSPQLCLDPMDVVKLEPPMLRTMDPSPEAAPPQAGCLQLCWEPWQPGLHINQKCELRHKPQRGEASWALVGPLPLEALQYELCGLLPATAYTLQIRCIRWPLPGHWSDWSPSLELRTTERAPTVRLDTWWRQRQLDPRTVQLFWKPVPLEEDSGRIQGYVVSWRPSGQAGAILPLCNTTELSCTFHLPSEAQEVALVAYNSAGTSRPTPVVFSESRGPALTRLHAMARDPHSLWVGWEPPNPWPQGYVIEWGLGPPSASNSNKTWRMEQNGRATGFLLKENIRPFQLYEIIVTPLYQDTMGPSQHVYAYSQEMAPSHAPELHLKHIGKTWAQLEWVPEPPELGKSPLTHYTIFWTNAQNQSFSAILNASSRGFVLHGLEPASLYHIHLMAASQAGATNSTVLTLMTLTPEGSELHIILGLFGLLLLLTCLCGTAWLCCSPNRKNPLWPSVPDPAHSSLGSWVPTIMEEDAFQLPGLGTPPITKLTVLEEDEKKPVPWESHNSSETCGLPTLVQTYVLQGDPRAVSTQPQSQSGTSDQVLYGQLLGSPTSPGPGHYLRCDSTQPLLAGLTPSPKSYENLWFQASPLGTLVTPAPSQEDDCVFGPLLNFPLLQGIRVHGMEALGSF
- protocolDescription: cell-based or functional assay
metricName: EC50 (% of hG-CSF) non-conjugated

binder: G-CSF variant K16/34/40R S76, non-conjugated (ligand) TPLGPASSLPQSFLLRCLEQVRKIQGDGAALQERLCATYRLCHPEELVLLGHSLGIPWAPLSSCPSQALQLAGCLKQLHSGLFLYQGLLQALEGISPELGPTLDTLQLDVADFATTIWQQMEELGMAPALQPTQGAMPAFASAFQRRAGGVLVASHLQSFLEVSYRVLRHLAQP
result: 50 % of hG-CSF

Please look at the following binder next.
Bench note: what EC50 (% of hG-CSF) non-conjugated did G-CSF variant K16/34/40R Q70K Q120K T133K, non-conjugated (ligand) TPLGPASSLPQSFLLRCLEQVRKIQGDGAALQERLCATYRLCHPEELVLLGHSLGIPWAPLSSCPSQALKLAGCLSQLHSGLFLYQGLLQALEGISPELGPTLDTLQLDVADFATTIWQKMEELGMAPALQPKQGAMPAFASAFQRRAGGVLVASHLQSFLEVSYRVLRHLAQP show?
15 % of hG-CSF

The reported numbers originate from patent US20030118612A1.
